Tested on: CCRIS mutagenicity, Ames/micronucleus/aberration tests
assay procedure: CCRIS mutagenicity studies
assay context: Test System: AMES SALMONELLA TYPHIMURIUM; Strain/Indicator: TA98; Metabolic Activation: NONE; Method: STANDARD PLATE
The source made the active and inactive calls. No rule for the calls is given here.
Possible outcomes: active, inactive

molecule: CC(=O)O[C@H]1[C@@]2(O)CC(C)(C)CC2=C(C=O)[C@@]2(C=O)C[C@@]12C
class name: inactive
--
molecule: c1ccc2cc3ccccc3cc2c1
class name: inactive
--
molecule: Cc1ccc2c(C)c3ccccc3c(C)c2c1
class name: active
--
molecule: COc1cc(N=Nc2ccc(N)cc2)c(C)cc1N=Nc1c(S(=O)(=O)O)cc2ccc(N)cc2c1O
class name: inactive
--
molecule: O=C1OC(O)C(CCl)=C1Cl (stereo unspecified)
class name: active
--
molecule: Cl[Si](Cl)(Cl)Cl
class name: inactive
--
molecule: C[N+]1(C)CCOCC1
class name: inactive
--
molecule: O=c1c(O)c(C2=CC(O)(CCO)C(O)(CCO)C=C2)oc2c1C(O)=CC(O)(CCO)C2 (stereo unspecified)
class name: inactive
--
molecule: BrCc1c2ccccc2cc2c1ccc1ccccc12
class name: active
--
molecule: FC(F)(F)c1ccccc1Cl
class name: inactive
--
molecule: Cc1c(/C=N/OCc2ccc(Cl)cc2)c2cc([N+](=O)[O-])ccc2n1Cc1ccccc1
class name: inactive

* * *

Test system: CCRIS mutagenicity, Ames/micronucleus/aberration tests
assay procedure: CCRIS mutagenicity studies
assay context: Test System: AMES SALMONELLA TYPHIMURIUM; Strain/Indicator: TA98; Metabolic Activation: HAMSTER, LIVER, S-9, AROCLOR 1254 (10%); Method: PREINCUBATION
Activity calls are given as the source filed them. How the calls were made is not given here.
Outcomes: active, inactive

given smiles: Nc1ccc2ccccc2c1N=Nc1ccc([N+](=O)[O-])cc1
class name: active

given smiles: Nc1c(N=Nc2ccc(-c3ccc(NN=C4C=CC(=O)C=C4)cc3)cc2)c(S(=O)(=O)O)cc2c1C(=O)/C(=N/Nc1ccccc1)C(S(=O)(=O)O)=C2
class name: inactive

given smiles: c1ccc2[nH]c(-c3cscn3)nc2c1
class name: active

given smiles: C[C@](N)(Cc1ccc(O)c(O)c1)C(=O)O
class name: inactive

* * *

Test system: CCRIS mutagenicity, Ames/micronucleus/aberration tests
assay procedure: CCRIS mutagenicity studies
assay context: Test System: E.COLI; Strain/Indicator: WP2UVRA; Metabolic Activation: NONE; Method: PREINCUBATION
Calls of active or inactive are those of the source. No rule for the calls is given here.
Outcome codes: TRUE for active, FALSE for inactive

molecule: Cc1cccc(O)c1C
class name: FALSE

molecule: O=C1CCCO1
class name: FALSE

molecule: O=C1c2ccccc2C(=O)c2c(O)ccc(O)c21
class name: FALSE

molecule: O=NN1CN2CN(C1)CN(N=O)C2
class name: FALSE

molecule: CC(Br)CBr (configuration not stated)
class name: FALSE

molecule: C/C=C/C=O
class name: FALSE

molecule: [Cl][Ti]([Cl])[Cl]
class name: FALSE

molecule: ClCC1CO1 (configuration not stated)
class name: TRUE

molecule: CCCBr
class name: FALSE

molecule: NN
class name: TRUE

molecule: CC(C)(c1ccccc1)c1ccc(O)cc1
class name: FALSE

molecule: C1COCCN1
class name: FALSE

* * *

Test system: CCRIS mutagenicity, Ames/micronucleus/aberration tests
assay procedure: CCRIS mutagenicity studies
assay context: Test System: AMES SALMONELLA TYPHIMURIUM; Strain/Indicator: TA1538; Metabolic Activation: NONE; Method: STANDARD PLATE
Active and inactive are the calls of the source. No rule for the calls is given here.
Possible outcomes: 1 (yes) = active, 0 (no) = inactive

molecule: C=CCc1ccc(O)c(O)c1
class name: 0 (no)
//
molecule: COc1cc(CNC(=O)CCCCCCC(C)C)ccc1O
class name: 0 (no)
//
molecule: Nc1ccn([C@@H]2C=C(CO)[C@@H](O)[C@H]2O)c(=O)n1
class name: 0 (no)
//
molecule: CC[C@H](c1ccc(O)cc1)[C@@H](CC)c1ccc(O)cc1
class name: 0 (no)
//
molecule: CSCCC(NC(=O)COc1cc(Cl)c(Cl)cc1Cl)C(=O)O (stereo not drawn)
class name: 0 (no)
//
molecule: CCN(CC)CCNc1ccc(C)c2sc3ccccc3c(=O)c12
class name: 0 (no)
//
molecule: CCCOc1cc(N=Nc2ccc(N(CCO)CCO)cc2)ccc1N=Nc1c(S(=O)(=O)O)cc2ccc(N)cc2c1O
class name: 0 (no)
//
molecule: C[C@]12CCC(=O)C=C1[C@@H]1C[C@@H]1[C@H]1[C@@H]3[C@@H]4C[C@@H]4[C@@]4(CCC(=O)O4)[C@@]3(C)CC[C@@H]12
class name: 0 (no)
//
molecule: CNC(=O)Oc1ccc2c(c1)[C@]1(C)CCN(C)[C@@H]1N2C
class name: 0 (no)
//
molecule: CCCCCCCCC=O
class name: 0 (no)
//
molecule: O=P(O)(O)OCC(O)CO (stereo not drawn)
class name: 0 (no)
//
molecule: C=C(C)C(=O)OCCCC
class name: 0 (no)
//
molecule: O=C1C=CC(=O)N1c1ccc(Cc2ccc(N3C(=O)C=CC3=O)cc2)cc1
class name: 0 (no)
//
molecule: O=Nc1ccc2c(c1)Cc1ccccc1-2
class name: 1 (yes)
//
molecule: C#CCOCC[n+]1ccccc1/C=N/O
class name: 0 (no)
//
molecule: c1ccc2c(c1)CCCC2
class name: 0 (no)
//
molecule: O=C(O)c1ccccc1
class name: 0 (no)
//
molecule: O=C1c2cccc(O)c2C(=O)c2c(O)cccc21
class name: 0 (no)
//
molecule: CCCCCCCCCCCCCCCC(=O)OC/C=C(C)/C=C/C=C(C)/C=C/C1=C(C)CCCC1(C)C
class name: 0 (no)
//
molecule: CN(C)CCCn1cc[n+](C)c1/C=N/O
class name: 0 (no)
//
molecule: O=C(Nc1ccc(Br)cc1)c1cc(Br)cc(Br)c1O
class name: 0 (no)
//
molecule: CC1=Nc2ccccc2C1(C)C
class name: 0 (no)
//
molecule: CSC(C)(C)/C=N/O
class name: 0 (no)

* * *

Tested on: CCRIS mutagenicity, Ames/micronucleus/aberration tests
assay procedure: CCRIS mutagenicity studies
assay context: Test System: AMES SALMONELLA TYPHIMURIUM; Strain/Indicator: TA100; Metabolic Activation: HAMSTER, LIVER, S-9, AROCLOR 1254; Method: STANDARD PLATE
The source made the active and inactive calls. How the calls were made is not given here.
Outcome codes: T for active, F for inactive

molecule: COc1cc(CNC(=O)CCCCCCC(C)C)ccc1O
measured on: CCRIS mutagenicity, Ames/micronucleus/aberration tests
class name: F
//
molecule: COCCCN
measured on: CCRIS mutagenicity, Ames/micronucleus/aberration tests
class name: F
//
molecule: CCCCON=O
measured on: CCRIS mutagenicity, Ames/micronucleus/aberration tests
class name: F
//
molecule: CCC(C)ON=O (stereo not drawn)
measured on: CCRIS mutagenicity, Ames/micronucleus/aberration tests
class name: F
//
molecule: c1ccc(NNc2ccccc2)cc1
measured on: CCRIS mutagenicity, Ames/micronucleus/aberration tests
class name: F
//
molecule: Cc1ccc2nc(-c3ccc(N)cc3)sc2c1
measured on: CCRIS mutagenicity, Ames/micronucleus/aberration tests
class name: T
//
molecule: CC(=O)OC(C)=O
measured on: CCRIS mutagenicity, Ames/micronucleus/aberration tests
class name: F
//
molecule: CCCCCON=O
measured on: CCRIS mutagenicity, Ames/micronucleus/aberration tests
class name: T

* * *

System: CCRIS mutagenicity, Ames/micronucleus/aberration tests
assay procedure: CCRIS mutagenicity studies
assay context: Test System: AMES SALMONELLA TYPHIMURIUM; Strain/Indicator: TA98; Metabolic Activation: S-9; Method: STANDARD PLATE
Active and inactive are the calls of the source. The rule behind the calls is not given here.
Classes used: t = active, f = inactive

compound: CNC(=O)Oc1ccc2c(c1)[C@]1(C)CCN(C)[C@@H]1N2C
class name: f
--
compound: O=c1[nH]cc(F)c(=O)[nH]1
class name: f
--
compound: Nc1ccc(/C=C/c2cccc(Cl)c2)cc1
class name: t
--
compound: CN(Cc1cnc2nc(N)nc(N)c2n1)c1ccc(C(=O)N[C@@H](CCC(=O)O)C(=O)O)cc1
class name: f
--
compound: O=Nc1ccc2c(c1)Cc1ccccc1-2
class name: t
--
compound: CCCCON=O
class name: t
--
compound: COc1ccc(C(=O)N2CCN(c3ccc4c(c3)CCC(=O)N4)CC2)cc1OC
class name: f
--
compound: CCCCC(CC)COC(=O)c1ccccc1C(=O)OCC(CC)CCCC (centres undefined)
class name: f
--
compound: Nc1ccc2c(=O)[nH]sc2c1
class name: f
--
compound: COP(=S)(OC)Oc1ccc(Sc2ccc(OP(=S)(OC)OC)cc2)cc1
class name: f
--
compound: O=C(CCl)Nc1snc2ccccc12
class name: t
--
compound: Nc1ccc(N(c2ccc3ccccc3c2)c2ccc3ccccc3c2)cc1
class name: f
--
compound: CS(=O)(=O)OCCCCOS(C)(=O)=O
class name: f
--
compound: O=[N+]([O-])c1ccc(/C=C/c2ccc([N+](=O)[O-])cc2)cc1
class name: t
--
compound: CN(N=O)C(=O)c1c(N(C)C(=O)OC(C)(C)C)ncn1C
class name: f
--
compound: C[C@@H]1C[C@@]2(C)[C@@H](CC[C@@H]3[C@@H]2CC[C@]2(C)[C@@H](O)CC[C@@H]32)CC1=O
class name: f
--
compound: C=CC#N
class name: f
--
compound: CC(C)(C)c1ccc(-c2ccc(N=O)cc2)cc1
class name: t
--
compound: CN1C(=O)[C@]23CC4=CC=C[C@H](O)[C@H]4N2C(=O)[C@@]1(CO)SS3
class name: f
--
compound: O=C(O)c1cn(-c2ccc(F)cc2)c2cc(N3CCNCC3)c(F)cc2c1=O
class name: f
--
compound: Nc1ccc(/C=C\c2ccc([N+](=O)[O-])cc2)cc1
class name: t
--
compound: CC(=O)Nc1snc2ccc(Cl)cc12
class name: f
--
compound: COc1ccc(/C=C/c2ccc([N+](=O)[O-])cc2)cc1
class name: t
--
compound: CCC(C)Nc1snc2ccccc12 (centres undefined)
class name: f

Recorded values, source PubChem BioAssay AID1259407.
